Reference source for all entries: patent US20120071475A1

- assay_summary: Metabolic stability test (pooled human liver microsome)
- Type: in vitro ADME
- recorded_conditions: percentage of test compound remained after 30 minutes, pooled human liver microsome 0.5 mg protein/mL, 1 mmol/L NADPH, 37° C., compound 0.5 μM
- Description: After a subject compound was reacted for a certain time using a pooled human liver microsome commercially available, a reacted sample and an unreacted sample are compared to calculate a survival ratio, and then the degree of metabolism in the liver was evaluated. […]
result_type: hLMS_ox(at 0.5 μM) % (%)

COc1cc(N2CCc3nc(NC(=O)Nc4ccccc4C(=O)N[C@@H](C)CO)sc3C2)nc(OC)n1 [Compound I-101]
91.9
Cc1cc(N2CCc3nc(NC(=O)Nc4ccccc4C(=O)NC(C)C)sc3C2)nc(Cl)n1 [Compound I-163]
90.5
CC(CO)NC(=O)c1ccccc1NC(=O)Nc1nc2c(s1)CN(c1cc(F)cc(F)c1)CC2 (stereo not drawn) [Compound I-119]
90.8

---

- assay_summary: Metabolic stability test (pooled human liver microsome)
- Format: in vitro ADME
- recorded_conditions: percentage of test compound remained after 30 minutes, pooled human liver microsome 0.5 mg protein/mL, 1 mmol/L NADPH, 37° C., compound 0.5 μM
result_type: hLMS_ox(at 0.5 μM) % (%)

CCNC(=O)c1ccncc1NC(=O)Nc1nc2c(s1)CN(c1cnc(OC)c(OC)c1)CC2
85.8
COc1cc(N2CCc3nc(NC(=O)Nc4ccccc4C(=O)NCC#N)sc3C2)nc(OC)n1
83.4
Cc1cc(N2CCc3nc(NC(=O)Nc4ccccc4C(=O)N[C@H](C)CO)sc3C2)nc(Cl)n1
94.4
COc1cc(N2CCc3nc(NC(=O)Nc4ccccc4C(=O)NC(C)CO)sc3C2)nc(OC)n1 (stereo not shown)
91.9
[2H]C([2H])([2H])[C@@H](CO)NC(=O)c1ccccc1NC(=O)Nc1nc2c(s1)CN(c1cc(OC)nc(OC)n1)CC2
98.7
COc1cc(N2CCc3nc(NC(=O)N[C@@H]4C[C@H]4C(=O)NC(C)C)sc3C2)nc(OC)n1
104
COc1cc(N2CCc3nc(NC(=O)Nc4ccccc4C(=O)NCCO)sc3C2)nc(OC)n1
90.2
COc1cc(N2CCc3nc(NC(=O)Nc4ccccc4C(=O)NC(C)C(O)C(F)(F)F)sc3C2)nc(OC)n1 (stereo not shown) [Compound I-139]
84.8
COc1cc(N2CCc3nc(NC(=O)Nc4ccccc4C(=O)NC4CCNCC4)sc3C2)nc(OC)n1
104
COc1cc(N2CCc3nc(NC(=O)Nc4ccccc4C(=O)NC4CCOCC4)sc3C2)nc(OC)n1
88.5
COc1cc(N2CCc3nc(NC(=O)Nc4cn(C)nc4C(=O)NCC(F)(F)F)sc3C2)nc(OC)n1
87.9
COc1cc(N2CCc3nc(NC(=O)Nc4ccccc4C(=O)NC4CCCC4O)sc3C2)nc(OC)n1 (stereo not shown)
88.4
Cc1cc(N2CCc3nc(NC(=O)Nc4ccccc4C(=O)NCC#N)sc3C2)nc(Cl)n1
98
COc1cc(N2CCc3nc(NC(=O)Nc4ccccc4C(=O)NC(C)CO)sc3C2)cnc1OC (stereo not shown)
103
COc1cc(N2CCc3nc(NC(=O)Nc4ccccc4C(=O)NCCF)sc3C2)nc(OC)n1
88.2
CC(CO)NC(=O)c1ccccc1NC(=O)Nc1nc2c(s1)CN(c1ccnc(F)c1)CC2 (stereo not shown)
90.6
CCNC(=O)c1ccccc1NC(=O)Nc1nc2c(s1)CN(c1cc(OC)nc(OC)n1)CC2
83.5
Cc1nc(NC(=O)Nc2ccccc2C(=O)NC(C)C)sc1-c1ccc(S(C)(=O)=O)c(F)c1
92.6
CC(C)NC(=O)c1ccccc1NC(=O)Nc1cn2nc(-c3cccc(S(C)(=O)=O)c3)ccc2n1
103
